- TESTED_TARGET: Hck (UniProt P08631)
- Sequence (P08631 whole entry, looked up): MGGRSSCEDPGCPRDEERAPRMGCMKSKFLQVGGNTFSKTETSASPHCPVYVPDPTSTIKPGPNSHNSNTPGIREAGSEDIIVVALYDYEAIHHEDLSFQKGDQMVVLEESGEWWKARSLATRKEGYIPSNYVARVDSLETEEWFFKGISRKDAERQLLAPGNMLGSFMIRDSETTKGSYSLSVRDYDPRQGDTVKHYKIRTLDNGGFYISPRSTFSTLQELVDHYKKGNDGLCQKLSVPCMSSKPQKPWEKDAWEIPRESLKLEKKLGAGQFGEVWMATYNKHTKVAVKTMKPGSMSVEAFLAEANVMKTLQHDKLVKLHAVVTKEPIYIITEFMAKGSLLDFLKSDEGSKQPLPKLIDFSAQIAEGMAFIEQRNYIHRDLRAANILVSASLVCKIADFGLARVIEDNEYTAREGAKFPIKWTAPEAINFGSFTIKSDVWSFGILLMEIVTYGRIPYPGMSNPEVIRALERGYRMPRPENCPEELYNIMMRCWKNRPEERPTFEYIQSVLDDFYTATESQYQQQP
- RUN_DESCRIPTION: phosphorylation enrichment, bacterial display (enrichment ratio); higher = better substrate or ligand; peptides without Tyr show the background
ATTRIBUTE_MEASURED: phosphorylation enrichment
Format: numeric value only, no unit, no commentary.

Check out these entries, answers already filled in.
[[record]]
sequence_text = "PEPHIYAVADV [MYO9A_Y216_L211P]"
attribute_measured = "phosphorylation enrichment"
number = 3.16

[[record]]
sequence_text = "LEAVSYSSRFA [RNLS_Y190_YF]"
attribute_measured = "phosphorylation enrichment"
number = 0.463

[[record]]
sequence_text = "TKDTFYKQRMF [GBA_Y451_P454R]"
attribute_measured = "phosphorylation enrichment"
number = 0.339

[[record]]
sequence_text = "GESVSYLFSHV [PRPS1_Y311]"
attribute_measured = "phosphorylation enrichment"
number = 0.473

[[record]]
sequence_text = "GSIQQYIFKQE [PRG4_Y1271_YF]"
attribute_measured = "phosphorylation enrichment"
number = 0.537


May I ask what phosphorylation enrichment has been recorded for ENAGFYFRVSA ?
0.62

Consider the sequence MNPPPYSQLLS [FGF23_Y154_F157L] and give its measured phosphorylation enrichment.
0.568

* * *

Catalogue of sequences with associated phosphorylation enrichment
- TESTED_TARGET: EPHB1 (UniProt P54762)
- Sequence (P54762 whole entry, looked up): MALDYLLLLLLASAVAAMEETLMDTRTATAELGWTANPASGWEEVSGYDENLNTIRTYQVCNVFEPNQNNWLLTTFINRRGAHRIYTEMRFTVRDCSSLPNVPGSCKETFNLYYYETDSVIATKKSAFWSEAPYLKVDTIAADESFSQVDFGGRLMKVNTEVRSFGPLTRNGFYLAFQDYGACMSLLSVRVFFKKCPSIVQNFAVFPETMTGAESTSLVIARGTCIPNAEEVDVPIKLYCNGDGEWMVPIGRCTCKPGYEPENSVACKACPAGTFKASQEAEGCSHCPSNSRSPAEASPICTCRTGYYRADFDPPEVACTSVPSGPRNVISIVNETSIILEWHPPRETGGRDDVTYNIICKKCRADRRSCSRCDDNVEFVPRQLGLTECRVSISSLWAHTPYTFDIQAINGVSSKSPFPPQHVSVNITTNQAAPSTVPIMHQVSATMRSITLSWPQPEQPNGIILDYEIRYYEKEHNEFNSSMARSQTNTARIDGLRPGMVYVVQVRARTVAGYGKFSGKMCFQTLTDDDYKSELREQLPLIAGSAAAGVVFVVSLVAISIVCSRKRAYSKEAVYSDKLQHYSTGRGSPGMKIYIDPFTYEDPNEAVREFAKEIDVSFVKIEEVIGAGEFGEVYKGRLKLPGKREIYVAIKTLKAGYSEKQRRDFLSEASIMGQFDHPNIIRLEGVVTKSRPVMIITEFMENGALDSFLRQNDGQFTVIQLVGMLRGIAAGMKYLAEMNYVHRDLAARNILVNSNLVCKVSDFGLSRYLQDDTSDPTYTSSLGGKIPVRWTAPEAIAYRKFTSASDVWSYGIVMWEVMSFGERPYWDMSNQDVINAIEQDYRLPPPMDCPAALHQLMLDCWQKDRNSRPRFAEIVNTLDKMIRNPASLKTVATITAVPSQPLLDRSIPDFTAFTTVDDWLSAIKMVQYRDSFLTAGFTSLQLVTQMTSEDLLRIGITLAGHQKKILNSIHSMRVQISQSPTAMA
- RUN_DESCRIPTION: phosphorylation enrichment, bacterial display (enrichment ratio); higher = better substrate or ligand; peptides without Tyr show the background
Just the number, please.

Example sequences with recorded phosphorylation enrichment:
[[record]]
sequence_text = "IVKAFYVRARA [AIPL1_Y268_YF]"
number = 0.5

[[record]]
sequence_text = "DGTESYLTVSS [PLK1_Y462]"
number = 0.447

[[record]]
sequence_text = "KVMANYVFKAG [MAML2_Y513_M514V_YF]"
number = 0.396

[[record]]
sequence_text = "ERQIRYLNHQL [CEP152_Y268]"
number = 0.373


Requested read-out: phosphorylation enrichment. Entry: EERNPYFSSAR [MCCC2_Y520_G517R_YF]
0.466

# get_value(readout='phosphorylation enrichment', item= LRYDSYWSYCN [SLC20A2_Y433_S434W] )
7.63

* * *

- Tested on: AncSZ
- RUN_DESCRIPTION: phosphorylation enrichment, bacterial display (enrichment ratio); higher = better substrate or ligand; peptides without Tyr show the background
ATTRIBUTE_MEASURED: phosphorylation enrichment
Give the figure by itself; no unit, no explanation.

Some solved entries appear below for comparison.
[[record]]
sequence_text = "EALDFYGEVKT [PTEN_Y155_R159K]"
number = 1.19

[[record]]
sequence_text = "WHHTFYNEPRV [ACTA1_Y93_L96P]"
number = 0.965

[[record]]
sequence_text = "GVPLGYPIKAS [ELN_Y206_P211S]"
number = 0.438


Which phosphorylation enrichment is reported for this sequence? WGLCSYYETSK [MAGED2_Y448_R446C]
1.38

So what does the record say about phosphorylation enrichment for AALKLYHVSDS [VIL1_Y256] ?
0.815

* * *

- Tested on: Fer (mouse)
- RUN_DESCRIPTION: phosphorylation enrichment, bacterial display (enrichment ratio); higher = better substrate or ligand; peptides without Tyr show the background
Label MET when phosphorylation enrichment is at or above 0.6; otherwise label NOT MET.

See these solved cases before continuing.
[[record]]
sequence_text = "DLDATYRPMFS [JUP_Y701_M697L_YF]"
label = "NOT MET"

[[record]]
sequence_text = "KLQKKYGPISS [CYP17A1_Y60_Y64S]"
label = "NOT MET"

[[record]]
sequence_text = "LNTFHHAGVSA [POLR2A_Y1109_Y1109H]"
label = "MET"

[[record]]
sequence_text = "FSCLPYRRLAF [SLC52A2_Y305_G306R_YF]"
label = "NOT MET"

[[record]]
sequence_text = "HKETGYVVERP [BCLAF1_Y466_L461H]"
label = "NOT MET"


Check if phosphorylation enrichment >= 0.6 (inclusive). Item: NTCNRYCRDEI [ITGB3_Y660]
NOT MET

Hi team, for GADDSYYTVRS [ZAP70_Y492_A495V] , is the recorded phosphorylation enrichment at or above 0.6?
MET

Has WQQQSYLDSGS [CTNNB1_Y30_I35S] a recorded phosphorylation enrichment greater than or equal to 0.6?
MET

Entry CYCSWYRGWAP [TIMP3_Y195_G190C] : is its phosphorylation enrichment no less than 0.6?
MET

Say whether KKFVPYFDLFM [IPO5_Y530_E525K_YF] shows phosphorylation enrichment of 0.6 or more.
NOT MET

Quick check, phosphorylation enrichment >= 0.6? REEKNYKLKET [BCLAF1_Y459]
MET

Quick check: does DDEENYENVPR [FCRL3_Y722] have phosphorylation enrichment greater than or equal to 0.6?
NOT MET

Please check the record GRLPEYNTRIA [CCDC151_Y542] and state if its phosphorylation enrichment is at or above 0.6.
NOT MET

* * *

- TESTED_TARGET: Hck (UniProt P08631)
- RUN_DESCRIPTION: phosphorylation enrichment, bacterial display (enrichment ratio); higher = better substrate or ligand; peptides without Tyr show the background
ATTRIBUTE_MEASURED: phosphorylation enrichment
Please give the numeric answer without any surrounding text.

[[record]]
sequence_text = "TFWKKYCTFWK [CCDC70_Y125_R126C]"
attribute_measured = "phosphorylation enrichment"
number = 0.38


Recorded phosphorylation enrichment for LQTFHYHGHSM [PDHA1_Y289_R288H_YF] , please?
0.533

Param item = RTLIRYAKLGN [BEST1_Y131_N133K] ; retrieve measured phosphorylation enrichment.
0.849

Sample GASWRYRSGVS [NEU1_Y242_G243R] — what was its phosphorylation enrichment?
0.46

What does the record list as phosphorylation enrichment for ERQIRYLNHQL [CEP152_Y268] ?
0.4

# lookup: phosphorylation enrichment of ESMLRYDVFGG [STOX1_Y607_E608D_YF]
0.619

Report phosphorylation enrichment for IENKLYGTSDP [RET_Y1062_M1064T] please.
0.553

Given the sequence GSCQEYTGAPF [NAXD_Y85_G81S_YF] , what is its reported phosphorylation enrichment?
0.509

Please give the measured phosphorylation enrichment for this sequence: WHHTFYNEPRV [ACTA1_Y93_L96P]
0.552

* * *

- TESTED_TARGET: Grb2 SH2 (UniProt P62993)
- Sequence (P62993 whole entry, looked up): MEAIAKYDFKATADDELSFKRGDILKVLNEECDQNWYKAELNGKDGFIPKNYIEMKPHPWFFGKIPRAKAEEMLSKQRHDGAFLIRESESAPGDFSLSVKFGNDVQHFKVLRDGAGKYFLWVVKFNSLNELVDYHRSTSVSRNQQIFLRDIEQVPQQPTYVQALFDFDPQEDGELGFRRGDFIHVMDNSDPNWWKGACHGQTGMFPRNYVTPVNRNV
- RUN_DESCRIPTION: SH2 binding enrichment of the phosphorylated peptide, bacterial display (enrichment ratio); higher = better substrate or ligand; peptides without Tyr show the background
Entry flag: True if SH2 binding enrichment reaches 0.8; False if it does not.

Example results:
[[record]]
sequence_text = "VIKDKYPQARF [APTX_Y209_K211Q_YF]"
label = "True"

[[record]]
sequence_text = "PLDGEYFTLQI [TP53_Y327]"
label = "False"

[[record]]
sequence_text = "TLLPDYEDEEE [ZNF830_Y159_S154T]"
label = "True"


Is the recorded value of SH2 binding enrichment equal to or greater than 0.8 for this sequence? APSHAYHRGVL [ANO1_Y981_G983R]
True

* * *

- System: AncSZ
- RUN_DESCRIPTION: phosphorylation enrichment, bacterial display (enrichment ratio); higher = better substrate or ligand; peptides without Tyr show the background
Class boundaries, taken from values of phosphorylation enrichment, are as follows: class 1 (below 0.8), class 2 (0.8 to below 1), class 3 (1 or more)

Record excerpt, results attached:
[[record]]
sequence_text = "NLTLKYPIEHG [ACTA1_Y71_I66N]"
label = "class 1"

[[record]]
sequence_text = "GGGGSYNVFGN [HNRNPA1_Y312_D314V]"
label = "class 1"

[[record]]
sequence_text = "FLAATYPTVGQ [NF1_Y2508_YF]"
label = "class 1"

[[record]]
sequence_text = "AEPNIYQEKLS [USP54_Y1233_D1231N]"
label = "class 1"


Let's switch to this sequence now.
Looking at HYECKYVINAI [MAOA_Y268] , which class would you pick?
class 3

* * *

- TESTED_TARGET: EPHB2 (UniProt P29323)
- Sequence (P29323 whole entry, looked up): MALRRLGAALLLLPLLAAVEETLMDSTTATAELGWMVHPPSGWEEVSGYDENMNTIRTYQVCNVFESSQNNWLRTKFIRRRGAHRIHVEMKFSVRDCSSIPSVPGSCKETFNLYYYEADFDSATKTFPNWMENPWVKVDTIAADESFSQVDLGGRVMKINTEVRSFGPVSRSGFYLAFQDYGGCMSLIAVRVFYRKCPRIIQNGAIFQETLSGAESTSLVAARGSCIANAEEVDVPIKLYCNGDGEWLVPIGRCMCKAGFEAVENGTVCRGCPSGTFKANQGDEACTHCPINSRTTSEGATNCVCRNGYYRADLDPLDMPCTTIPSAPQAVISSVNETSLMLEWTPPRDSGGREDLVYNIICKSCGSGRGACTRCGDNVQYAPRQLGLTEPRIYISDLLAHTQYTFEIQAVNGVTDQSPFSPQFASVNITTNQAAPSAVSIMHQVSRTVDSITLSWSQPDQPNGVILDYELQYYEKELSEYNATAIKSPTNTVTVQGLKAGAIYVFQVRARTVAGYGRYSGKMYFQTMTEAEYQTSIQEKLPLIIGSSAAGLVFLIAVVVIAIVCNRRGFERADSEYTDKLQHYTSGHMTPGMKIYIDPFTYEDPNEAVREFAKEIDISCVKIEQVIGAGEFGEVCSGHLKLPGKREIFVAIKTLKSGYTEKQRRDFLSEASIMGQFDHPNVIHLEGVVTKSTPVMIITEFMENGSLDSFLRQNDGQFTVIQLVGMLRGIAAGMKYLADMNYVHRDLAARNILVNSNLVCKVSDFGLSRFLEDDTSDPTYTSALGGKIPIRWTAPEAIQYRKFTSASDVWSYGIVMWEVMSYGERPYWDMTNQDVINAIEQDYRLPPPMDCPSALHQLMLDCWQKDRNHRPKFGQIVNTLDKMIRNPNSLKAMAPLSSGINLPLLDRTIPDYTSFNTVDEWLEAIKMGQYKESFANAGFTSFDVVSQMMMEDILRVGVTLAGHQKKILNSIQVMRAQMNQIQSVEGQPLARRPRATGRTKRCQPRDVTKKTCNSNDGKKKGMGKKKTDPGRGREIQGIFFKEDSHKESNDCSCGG
- RUN_DESCRIPTION: phosphorylation enrichment, bacterial display (enrichment ratio); higher = better substrate or ligand; peptides without Tyr show the background
// thresholds for phosphorylation enrichment classes: bottom (below 0.5), middle (0.5 to below 0.7), top (0.7 or more)

Please review the entries below; each comes with its answer.
[[record]]
sequence_text = "HKLSSYEYDFE [BTK_Y40_Y39S]"
tested_target = "EPHB2 (UniProt P29323)"
label = "top"

[[record]]
sequence_text = "AEKPKYQISNI [TJP1_Y1602_N1605S]"
tested_target = "EPHB2 (UniProt P29323)"
label = "bottom"

[[record]]
sequence_text = "GSIQQYIFKQE [PRG4_Y1271_YF]"
tested_target = "EPHB2 (UniProt P29323)"
label = "middle"

[[record]]
sequence_text = "GFKVRYATWSI [FGFR1_Y210_YF]"
tested_target = "EPHB2 (UniProt P29323)"
label = "middle"

[[record]]
sequence_text = "HLATEYVFSDF [PANX1_Y10_Q5H]"
tested_target = "EPHB2 (UniProt P29323)"
label = "top"

[[record]]
sequence_text = "KPYRVYCDMNT [FGB_Y269]"
tested_target = "EPHB2 (UniProt P29323)"
label = "top"

[[record]]
sequence_text = "EHFSYYGMKAV [SLC15A2_Y61_R57H]"
tested_target = "EPHB2 (UniProt P29323)"
label = "top"

[[record]]
sequence_text = "MKTISYETLIA [DOCK10_Y1350]"
tested_target = "EPHB2 (UniProt P29323)"
label = "bottom"


Class? Entry: ASLLPYFPAIM [IPO4_Y518]
middle

Bin this entry: KHGGNYVPAPK [OSCP1_Y237]
bottom

Exam item: assign QMVDMYASSYM [AVPR2_Y124_G122D] to the correct category.
middle

For the record GSLEDYVRETN [GIMAP6_Y176] , report the class its phosphorylation enrichment corresponds to.
middle

// bin(item) where item = CRAVKYLQMVD [AVPR2_Y117_G122D]
bottom

Hi there! Could you help me figure out the category for WKESWYSMRKM [FGB_Y475_G472E] please?
middle

Kindly identify the class of QEGPEYWDGET [HLA-A_Y83_Q86G] .
top

Which phosphorylation enrichment band matches WNEVGYDDIGG [VCP_Y203_L198W] ?
middle
